The reader will find reported max response values listed item by item below.
- System: CRL-7250
- assay name: Cytotoxic Profiling of Annotated Libraries Using Quantitative High-Throughput Screening (AID 1296008); further: on the % scale 0 is the no-effect control and ±100 the full control effect; nearly all actives have a fitted effect of over 60% in size
- reported conditions: Five cell lines viability, CellTiter-Glo ATP luminescence, 48-72 h; hits give low values
Records with an inconclusive call do not appear.

| compound | units label | max response |
| --- | --- | --- |
| Cc1ccc(C(=O)c2ccc(CC(=O)O)n2C)cc1 | % | -1.54 |
| CN(CCCOc1ccc(Cc2ccccc2)cc1)CCC(=O)O | % | 2.73 |
| CN1[C@@H]2CC[C@H]1CC(OC(=O)C(CO)c1ccccc1)C2 (stereo partly drawn) | % | -9.68 |
| CCCCCCCCCCCC(=O)[O][Sn]([CH2]CCC)([CH2]CCC)[O]C(=O)CCCCCCCCCCC | % | -26.6 |
| COc1cc(CNC(=O)CCCC/C=C/C(C)C)ccc1O | % | 3.92 |
| CCCCCCCCCCCCCCCC(=O)OC(C)C | % | 3.48 |
| Nc1ccc(C(=O)O)c(O)c1 | % | -0.825 |
| O=[N+]([O-])c1ccc(CNc2nc(NCc3cccc(C(F)(F)F)c3)nc3nc[nH]c23)cc1 | % | -5.54 |
| C#CC1(O)CC[C@H]2[C@@H]3CCC4=CCCC[C@@H]4[C@H]3CC[C@@]21C (stereo partly drawn) | % | -8.11 |
| CCOc1ccc2nc(S(N)(=O)=O)sc2c1 | % | -14 |
| CC(C)(C)c1nnc(NS(=O)(=O)c2ccc(N)cc2)s1 | % | 2.87 |
| Fc1ccc2[nH]c(CN3CCN(c4ccccn4)CC3)cc2c1 | % | -22.3 |
| O=C(CS)Nc1ccccc1 | % | -21.9 |
| C/C(=N\O)c1ccc(OCC(=O)N2CCCCC2)cc1 | % | -1.81 |
| CN1CCN(c2cc3c(nn2)Oc2ccccc2N3C)CC1 | % | -2.91 |
| COc1ccc(-c2cc(=S)ss2)cc1 | % | -2.86 |
| CCNC(=O)[C@H]1O[C@@H](n2cnc3c(N)nc(NCCc4ccc(CCC(=O)O)cc4)nc32)[C@H](O)[C@@H]1O | % | 3.23 |
| COc1ccnc2c1CCCCC2S(=O)c1nc2ccccc2[nH]1 (stereo not drawn) | % | -8.92 |

====

- assay name: qHTS assay for measurement of the activity of small molecule inhibitors on Zika virus induced Caspase-3 activity in human astrocytoma cells (AID 1224859)
- reported conditions: SNB-19 ZIKV-induced caspase-3/7, luminescence, 6 h; series mostly up to 45.7 µM
- Description: National Center for Advancing Translational Sciences [NCATS] Johns Hopkins University School of Medicine […] The medium for SNB-19 cells is composed of RPMI 1640 (ATCC, Cat.# 30-2001), 10% fetal bovine serum (FBS) (GE healthcare Life Sciences, Cat.# SH30071.03), and 1% Pen/Strep (Gibco, Cat.# 15140-122). […] The luminescence intensity of the assay plates was measured using a ViewLux plate reader (PerkinElmer). […]
The source made the active and inactive calls. The call rests on the fitted dose curve; in most records, active means well fitted inhibition curve with a large enough effect; inconclusive means small, poorly fitted or top-dose-only effect; inactive means no such curve, though single readings can be large or run the other way.
Outcome codes: true for active, false for inactive

| compound | class |
| --- | --- |
| O=C(CCN1CCN(CCO)CC1)N1c2ccccc2Sc2ccc(C(F)(F)F)cc21 | false |
| CO/S(=N\S(=O)(=O)c1ccc(Cl)cc1)c1ccc([N+](=O)[O-])cc1 (stereo not given) | false |
| COc1ccc(/C=C/C(=O)Nc2ccccc2C(=O)O)cc1OC | true |
| N[C@@H](CC(=O)O)C(=O)O | false |
| NCC1OC(O[C@H]2[C@H](O)[C@@H](OC3C(O)C(N)CC(N)C3OC3OC(CO)C(O)C(O)C3N)O[C@@H]2CO)C(N)C(O)C1O (stereo not given in full) | false |
| CNc1ncnc2c1ncn2[C@@H]1O[C@H](CO)[C@@H](O)[C@H]1O | false |
| Cn1ncc(S(=O)(=O)Cc2ccccc2)c(Br)c1=O | false |
| Cc1ccc(C(=O)c2ccc(CC(=O)O)n2C)cc1 | false |
| NC[C@@H]1O[C@H](C23CC4CC(CC(C4)C2)C3)Cc2c1ccc(O)c2O | false |
| CCCCCC(O)c1cccc(OCc2ccc3ccccc3n2)c1 (stereo not given) | false |

====

- assay name: MultiTox-Fluor Cytotoxicity Assay - LYMP1-002 - Live Cells (AID 955);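 further: cells exposed to compound for 16 hours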
- reported conditions: LYMP1-002 lymphoblastoid live-cell protease fluorescence viability; series mostly up to 46.1 µM
Records with an inconclusive call do not appear. Calls of active or inactive are those of the source. Calls follow the shape of the dose curve; as a rule, active = well fitted cell-killing curve with a large enough effect; inconclusive = small, poorly fitted or top-dose-only effect, or effect the other way; inactive = flat fitted curve, though single readings scatter.
Outcome codes: active, inactive

| compound | class |
| --- | --- |
| O=C1CN(/N=C/c2ccc([N+](=O)[O-])o2)C(=O)N1 | inactive |
| Nc1nc2ccc([N+](=O)[O-])cc2s1 | inactive |
| NCCO | inactive |
| O=C(O)/C=C\C(=O)O | inactive |
| CN(C)CCC(c1ccc(Cl)cc1)c1ccccn1 (stereo not given) | inactive |
| Nc1ccc(O)c([N+](=O)[O-])c1 | inactive |
| CCCCCCCCCCCCCCCCCC(=O)O | inactive |
| c1ccc2sc(SSc3nc4ccccc4s3)nc2c1 | inactive |
| CC1(C)S[C@@H]2[C@H](NC(=O)[C@H](N)c3ccccc3)C(=O)N2[C@H]1C(=O)O | inactive |
| CCCOC(=O)c1ccc(O)cc1 | inactive |
| CN1CCC[C@H]1c1cccnc1 | inactive |
| O=c1cc(-c2ccccc2)oc2ccccc12 | inactive |
| CN(C)c1ccc(N=NS(=O)(=O)O)cc1 | inactive |
| c1cnc2c(c1)ccc1cccnc12 | inactive |
| CN(C)c1ccc(C(=C2C=CC(=[N+](C)C)C=C2)c2ccccc2)cc1 | active |

====

- assay name: Validation screen for small molecules that induce DNA re-replication in MCF 10A normal breast cells (AID 463097); further: nearly all actives have a fitted effect of over 60% in size
- reported conditions: MCF 10A cells, DNA re-replication phenotype imaging; series mostly up to 46.1 µM
Records with an inconclusive call do not appear. Activity calls are given as the source filed them. Calls follow the shape of the dose curve; as a rule, active = well fitted activation curve with a large enough effect; inconclusive = small, poorly fitted or top-dose-only effect; inactive = flat fitted curve, though single readings scatter.
Outcome codes: active, inactive

| molecule | class |
| --- | --- |
| Oc1ccc(C2CNCc3sccc32)cc1O (centres undefined) | inactive |
| O=C1C(SCCO)=C(SCCO)C(=O)c2ccccc21 | active |
| NC(=O)C(=O)O | inactive |
| O=C(O)CC1CCCc2ccccc2C1O (centres undefined) | inactive |
| CC(C)NC[C@H](O)COc1cccc2[nH]ccc12 | inactive |
| CC(C)NCC(O)COc1cccc2ccccc12 (centres undefined) | inactive |
| Fc1ccc(C(OCCCc2cnc[nH]2)c2ccc(F)cc2)cc1 | inactive |
| O=C(O)/C=C/C(O)c1ccc(Cl)cc1 (centres undefined) | inactive |
| NO | inactive |
| CC(C)(C=O)Cc1cc(C(C)(C)C)c(O)c(C(C)(C)C)c1 | inactive |
| O=C(O)CC[C@@H](C(=O)O)N1C(=O)c2ccccc2C1=O | inactive |
| N[C@@H](CC(=O)O)C(=O)O | inactive |
| CN(C)C(N)=NCCC[C@H](N)C(=O)O | inactive |
| CC(=O)SCC[N+](C)(C)C | inactive |
| O=C1NC(O)=NC1(c1ccccc1)c1ccccc1 | inactive |
| N#C/C(=C\c1ccc(O)c(O)c1)C(=O)c1ccc(O)c(O)c1 | inactive |
| Fc1cccc(/C=N/N=C/c2cccc(F)c2)c1 | inactive |
| N.N.O=C(O)C1(C(=O)O)CCC1.[Pt] | inactive |
| N#C/C(=C\c1ccc(O)c(O)c1)C(=O)NCc1ccccc1 | active |
| COc1ccc(/C=C/C(=O)Nc2ccccc2C(=O)O)cc1OC | inactive |
| CN(C)CCC(c1ccc(Cl)cc1)c1ccccn1 (centres undefined) | inactive |
| CCN1/C(=C/C(C)=O)Sc2ccc(OC)cc21 | inactive |
| O=C(O)CCCC[C@@H]1CCSS1 | inactive |
| CN1[C@@H](CC(=O)c2ccccc2)CCC[C@H]1C[C@H](O)c1ccccc1 | inactive |
| CC(C)(C)NCC(O)COc1nsnc1N1CCOCC1 (centres undefined) | inactive |
| CCCCCCCCCCCCCCCCCC(=O)NCC(COP(=O)([O-])OCC[N+](C)(C)C)OCC (centres undefined) | active |
| COc1cccc(C(=O)NCCN2CCN(c3ccc(Cl)cc3)CC2)c1 | inactive |
| Cc1cc(NC(=O)Nc2ccc3c(ccn3C)c2)sn1 | inactive |
| Oc1cc2c(cc1O)CN(C(=S)NCCc1ccc(Cl)cc1)CCC2 | active |

====

- assay name: qHTS assay to identify small molecule inhibitors of chordoma cells - UCH-2 (AID 1259356)
- reported conditions: UCH-2 chordoma viability, CellTiter-Glo ATP luminescence, 48 h; series mostly up to 46.1 µM
Results filed as inconclusive are left out. Activity calls are given as the source filed them. The call rests on the fitted dose curve; in most records, active means well fitted cell-killing curve with a large enough effect; inconclusive means small, poorly fitted or top-dose-only effect; inactive means flat fitted curve, though single readings scatter. Where a SMILES comes first, the peptide text is derived from it. [ ]: non-standard residue; d: D form. pGlu = O=C1CC[C@@H](C(=O)O)N1; Thz = O=C(O)[C@@H]1CSCN1
Outcome codes: active, inactive

| molecule | class |
| --- | --- |
| CC1(C)[C@@H](O)CC[C@]2(C)[C@H]3C(=O)C=C4[C@@H]5C[C@@](C)(C(=O)O)CC[C@]5(C)CC[C@@]4(C)[C@]3(C)CC[C@@H]12 | inactive |
| O=C(O)[C@H](O)[C@@H](O)[C@H](O)[C@H](O)CO | inactive |
| CC(C(=O)O)c1ccc(C(=O)c2cccs2)cc1 (stereo unspecified) | inactive |
| COc1cccc2c1C(=O)c1c(O)c3c(c(O)c1C2=O)C[C@@](O)(C(=O)CO)C[C@@H]3O[C@H]1C[C@H](N)[C@H](O[C@@H]2CCCCO2)[C@H](C)O1 | active |
| Nc1c(CC(=O)O)cccc1C(=O)c1ccc(Br)cc1 | inactive |
| [O-][n+]1ccccc1SSc1cccc[n+]1[O-] | inactive |
| Nc1cc(-c2ccncc2)c[nH]c1=O | inactive |
| Nc1ccc(O)c(C(=O)O)c1 | inactive |
| Nc1ccc(C(=O)O)c(O)c1 | inactive |
| CCCCCCCCCCCCCCCCCC(=O)O | inactive |
| O=C(O)/C=C/C(O)c1ccc(Cl)cc1 (stereo unspecified) | inactive |
| O=C(O)c1ccccc1Nc1cccc(C(F)(F)F)c1 | inactive |
| CC(C(=O)O)c1ccc2c(c1)[nH]c1ccc(Cl)cc12 (stereo unspecified) | inactive |
| COc1ccc(-c2cc(=S)ss2)cc1 | inactive |
| O=C1CN(/N=C/c2ccc([N+](=O)[O-])o2)C(=O)N1 | inactive |
| CN(C)CCn1nnnc1SCC1=C(C(=O)O)N2C(=O)[C@@H](NC(=O)Cc3csc(N)n3)[C@H]2SC1 | inactive |
| CC[C@H]1OC(=O)[C@H](C)C(=O)[C@H](C)[C@@H](O[C@@H]2O[C@H](C)C[C@H](N(C)C)[C@H]2O)[C@](C)(OC)C[C@@H](C)C(=O)[C@H](C)[C@H]2N(CCCCn3cnc(-c4cccnc4)c3)C(=O)O[C@]12C | inactive |
| c1ccc2sc(SN3CCOCC3)nc2c1 | inactive |
| C#CC1(O)CC[C@H]2[C@@H]3CCC4=CCCC[C@@H]4[C@H]3CC[C@@]21C (stereo partly specified) | inactive |
| C=C(Nc1ccc(OCC)cc1)Nc1ccc(OCC)cc1 | inactive |
| O=C1CC[C@@H](C(=O)N2CSC[C@H]2C(=O)O)N1 ([pGlu]-[Thz]-OH) | inactive |
| Cc1c(Nc2ncccc2C(=O)O)cccc1C(F)(F)F | inactive |
| Cc1c(C(=O)O)c(O)cc2c1C(=O)c1c(O)c([C@@H]3O[C@H](CO)[C@@H](O)[C@H](O)[C@H]3O)c(O)c(O)c1C2=O | inactive |
| O=c1[nH]c2ccccc2n1CCCN1CCN(C(c2ccccc2)c2ccccc2)CC1 | inactive |
| COc1cc(/C=C/C(=O)N2CCN(CC(=O)N3CCCC3)CC2)cc(OC)c1OC | inactive |
| CC(C(=O)O)c1ccc(C(=O)c2ccccc2)s1 (stereo unspecified) | inactive |
| C[N+](C)(C)CCOP(=O)(O)OP(=O)([O-])OC[C@H]1O[C@@H](n2ccc(N)nc2=O)[C@H](O)[C@@H]1O | inactive |
| COC(=O)C1=C(C)NC(C)=C(C(=O)OCC(C)C)C1c1ccccc1[N+](=O)[O-] (stereo unspecified) | inactive |
| Cc1cc(O)c2ccccc2c1O | inactive |
| Cc1ccc(C(=O)c2ccc(CC(=O)O)n2C)cc1 | inactive |
| O=C(OCc1ccccc1)c1ccccc1 | inactive |
| O=C(Nc1ccc(C(=O)O)c(O)c1)c1ccccc1 | inactive |
| CO/N=C(\C(=O)N[C@@H]1C(=O)N2C(C(=O)O)=C(COC(C)=O)CS[C@H]12)c1csc(N)n1 (stereo in doubt) | inactive |
| Cc1nc2ccccc2n1Cc1ccc(Cl)cc1 | inactive |
| CO[C@H]1C[C@@H]2CC[C@@H](C)[C@@](O)(O2)C(=O)C(=O)N2CCCC[C@H]2C(=O)O[C@H]([C@H](C)C[C@@H]2CC[C@@H](O)[C@H](OC)C2)CC(=O)[C@H](C)C=C(C)[C@@H](O)[C@@H](OC)C(=O)[C@H](C)C[C@H](C)/C=C/C=CC=C1C | inactive |
| O=C(/C=C/c1ccccc1)NCCO | inactive |
| CCCSc1ccc2nc(NC(=O)OC)[nH]c2c1 | inactive |
| CCC1C(=O)OCC1Cc1cncn1C (stereo unspecified) | inactive |
| C[C@H](O)[C@H](O)[C@H]1CNc2nc(N)[nH]c(=O)c2N1 | inactive |
| Clc1ccccc1-c1nc(-c2ccncc2)no1 | inactive |
| CN1CC(=O)N/C1=N/C(=O)Nc1cccc(Cl)c1 | inactive |
